The measurements presented in this section are drawn from paper PMC11484942.

Please provide measured Protein synthesis inhibition for the entries that follow.
Test system: E. coli BL21 (DE3) Star cell extract
Test Method Notes: Cell-free protein synthesis (coupled transcription/translation) of EGFP
Assay type: biochemical, Escherichia coli
Applied Conditions: minimum concentration that provides >90% inhibition of the EGFP synthesis in the CFPS system
Method: To investigate the effects of AMPs and antibiotics on the coupled transcription/translation process, the test compounds were added to a cell-free protein synthesis (CFPS) reaction mix with a plasmid encoding enhanced green fluorescent protein (EGFP) variant (F64L, S65T, Q80R, F99S, M153T, and V163A) under control of the T7 promoter. […] The fluorescence of the sample without inhibitor was set as the 100% value. […]
Ends that are not written are not given here.
Note: unit µM is implicit; provide only the numeric part.

Lab note: measured Protein synthesis inhibition of RPPKPRPPHRPRPRPRPWFPPRFP [Rum-1[6-29]] was 4

Note to self: Protein synthesis inhibition recorded for RPRPPKPRPPHRPRPRPRPWFPPRFP [Rum-1[4-29]] was 4

Just so you know, measured Protein synthesis inhibition for RPPHRPRPRPRPWFPPRFP [Rum-1[11-29]] came out at 32

Form: sequence = PHRPRPRPRPWFPPRFP [Rum-1[13-29]] ; Protein synthesis inhibition = 64

Just so you know, measured Protein synthesis inhibition for KPRPPHRPRPRPRPWFPPRFP [Rum-1[9-29]] came out at 4

Entry under test: RPRPRPRPWFPPRFP [Rum-1[15-29]] . Its Protein synthesis inhibition was 256
